Below, each entry is listed with its recorded damage to plant (100=total damage to plant; 0=no damage to plant), SETFA.
Test system: plants
Assay: Test D post-emergence, other plants of Tables D2 and D4
Assay type: in vivo
Details: post-emergence, SETFA, rate 500, evaluated after 15 d
Method: A formulation containing 50 g/L of the test chemical was prepared by dissolving the active ingredient in a mixture of organic solvents and emulsifier, details of which are provided in the table. This formulation was then mixed with a small, variable amount of acetone to aid dissolution, before addition of a 0.2% v/v aqueous solution of an adjuvant, as the aqueous diluent, to form an aqueous spray solution which contains a predetermined concentration of the active ingredient. […]
MEASURED_QUANTITY: damage to plant (100=total damage to plant; 0=no damage to plant), SETFA

molecule="CN1CC(c2cc(C(F)(F)F)n(C)n2)C(C(=O)Nc2ccc(F)c(F)c2F)C1=O (racemic)" val=70
molecule=CN1C[C@H](c2nn(C)c3c(F)cccc23)[C@@H](C(=O)Nc2cccc(F)c2F)C1=O val=80
molecule="CN1CC(c2cc(C(F)(F)F)n(C)n2)C(C(=O)Nc2ccc(F)cc2F)C1=O (racemic)" val=70
molecule=CCn1nc([C@H]2CN(C)C(=O)[C@@H]2C(=O)Nc2cccc(F)c2F)c2cc(F)ccc21 val=80
molecule="CN1CC(c2cc(C(F)(F)F)n(C)n2)C(C(=O)Nc2ccc(F)nc2F)C1=O (racemic)" val=20
molecule="COc1c(F)cccc1NC(=O)C1C(=O)N(C)CC1c1cc(C(F)(F)F)n(C)n1 (racemic)" val=70
